meta.source: the supplement of paper PMC13380429

Test system: A549-ACE2 infected with SARS-CoV-2
Test: cell count relative to DMSO; higher = less toxic
Conditions: 3 µM; 24 h
readout name: cell count (%)
Provide the reading as a plain figure in %.

// solved cases for cell count follow
O=C(OCC(O)CO)c1ccccc1Nc1ccnc2cc(Cl)ccc12 (centres undefined) ... 85
Cn1cc(-c2ccc3c(c2)CCN3C(=O)Cc2cccc(C(F)(F)F)c2)c2c(N)ncnc21 ... 112
NC(=O)N1CCC(CC(=O)N2CCC([C@H]3c4ncc(Br)cc4CCc4cc(Cl)cc(Br)c43)CC2)CC1 ... 102

Which measured cell count value corresponds to CN1[C@@H]2CC[C@H]1C[C@@H](OC(c1ccccc1)c1ccccc1)C2 [benztropine-mesylate] ? 112
